Data provenance: PubChem BioAssay AID651702

inhibition values, listed per item
Experiment: LAMP-1 surface exposure blockers, TALL-104 cells – cell-based, flow cytometry, MLPCN library, primary screen (AID 651702)
Details: TALL-104 LAMP-1 surface exposure, at 10 µM, stronger effect = higher value, cells stimulated with thapsigargin and PMA
About 2,400 (0.67%) of roughly 360,000 compounds were called active. For the sample, actives were picked, then their nearest neighbours and some compounds at random.
The response must be a number in % with no trailing unit.

Check out these entries, answers already filled in.
OC(COc1ccc(CN2CCSCC2)cc1)CN1CCCCC1 (stereo not drawn) | 19.9
COc1cccc(CNc2nc(NCc3cccs3)nc3ccsc23)c1 | 21
COC(=O)C1=C(C(=O)OC)C(c2cc([N+](=O)[O-])ccc2O)c2sc(=O)[nH]c2S1 (stereo not drawn) | 7.4

Item COc1cc(C(=O)NCc2nnc(SCC(=O)Nc3nc4ccc(C)cc4s3)o2)cc(OC)c1OC has what recorded inhibition?
-6.4

May I ask what inhibition has been recorded for CN(c1ccccc1)S(=O)(=O)c1ccc(NC(=O)COc2ccccc2)cc1 ?
16.3

Which inhibition value belongs to CC(=O)C[C@H](O)CC(=O)[C@@H]1OC(=O)[C@@H](C)C/C=C\Cc2ccccc21 ?
-0.2

Which value of inhibition has been reported for CN(c1ccccc1)S(=O)(=O)c1ccc(C(=O)NCc2cccnc2)cc1 in the records?
-0.5

Field request: inhibition | item: CCOc1ccc(OCCSc2nc3ccccc3n2CC(=O)O)cc1
-4.7

Please give the measured inhibition for this molecule: CCOC(=O)[C@]12CCCC=C1N(CCC1=CCCCC1)C(=O)[C@H](CC(=O)NCCCCc1ccccc1)C2
11.5
